Catalogue of TGI values
Test system: EKVX NSCLC
experimental-details: NCI tumour cell line growth inhibition, 48 h
endpoint-label: TGI

[[record]]
compound = "NC1=NN(c2ccccc2)C2(O)c3ccncc3C3=NN(c4ccccc4)C(=O)C132 (centres undefined)"
observed_measurement = "> 100 µM"

[[record]]
compound = "Cc1ccc(C(=O)C(Cl)C(Cl)c2ccc(C)cc2)cc1 (centres undefined)"
observed_measurement = "19.5 µM"

[[record]]
compound = "Cc1nn(-c2ccccc2)c2[nH]c(=S)cnc12"
observed_measurement = "> 100 µM"

[[record]]
compound = "NC1CCCCC1N.O=S(=O)([O-])CCCN1CCOCC1.O=S(=O)([O-])CCCN1CCOCC1.[Pt+4]"
observed_measurement = "> 100 µM"

[[record]]
compound = "Cc1cc(I)cc(CN(C)CCN2CCCC2)c1O"
observed_measurement = "> 100 µM"

[[record]]
compound = "O=C(O)C1Cc2c([nH]c3ccccc23)C=N1 (centres undefined)"
observed_measurement = "> 100 µM"

[[record]]
compound = "O=S(=O)(c1ccc(N=C2NN=C(c3c[nH]c4ccccc34)CS2)cc1)N1CCOCC1"
observed_measurement = "> 100 µM"

[[record]]
compound = "O=C1c2ccccc2-c2ccc(N=Nc3c(O)ccc4ccccc34)cc21"
observed_measurement = "> 100 µM"

[[record]]
compound = "CC[Si](CC)(CC)OC[C@]1([C@@H]2COC(C)(C)O2)CC=CC(=O)O1"
observed_measurement = "> 100 µM"


----------
Test system: SK-MEL-5 melanoma
experimental-details: NCI tumour cell line growth inhibition, 48 h
endpoint-label: TGI

[[record]]
compound = "CCn1c(O)c(C=N)c(=O)n(CC)c1=O"
endpoint_label = "TGI"
observed_measurement = "> 100 µM"

[[record]]
compound = "CN1CCCCCC(=N\\O)/C(=N/O)CCCCC1"
endpoint_label = "TGI"
observed_measurement = "> 100 µM"

[[record]]
compound = "CC(=O)/C(=C\\C1=CCCO1)C(=O)Nc1ccccc1C"
endpoint_label = "TGI"
observed_measurement = "> 100 µM"

[[record]]
compound = "COc1ccc(/C=C2\\CCCCCC2=O)cc1"
endpoint_label = "TGI"
observed_measurement = "> 100 µM"

[[record]]
compound = "CC1(C)CC(n2cnc(-c3ccc(F)cc3)c2-c2ccnc(N)n2)CC(C)(C)N1"
endpoint_label = "TGI"
observed_measurement = "> 25 µM"

[[record]]
compound = "Cn1nc(-c2ccccc2)nc1[N+](=O)[O-]"
endpoint_label = "TGI"
observed_measurement = "> 10 µM"

[[record]]
compound = "COc1ccc2c(c1)OC1=C(C(=O)OC1)C2c1cc(OC)c(OC)c(OC)c1 (stereo unspecified)"
endpoint_label = "TGI"
observed_measurement = "61.2 µM"

[[record]]
compound = "O=C(Nc1ccc(F)cc1)C(=O)C(C1OC(=O)c2ccccc21)[N+](=O)[O-] (stereo unspecified)"
endpoint_label = "TGI"
observed_measurement = "> 100 µM"

[[record]]
compound = "COc1ccc2c(c1)N=C1CSC(c3cccc(Br)c3)N1C2 (stereo unspecified)"
endpoint_label = "TGI"
observed_measurement = "27.6 µM"

[[record]]
compound = "O=C1NC2CCC(C2)C1c1ccccc1 (stereo unspecified)"
endpoint_label = "TGI"
observed_measurement = "> 100 µM"

[[record]]
compound = "CN(C)CCCCN1c2ccccc2Sc2cc(N=[N+]=[N-])ccc21"
endpoint_label = "TGI"
observed_measurement = "3.18 µM"

